Test: Clearance in dog at 0.2 mg/kg, iv by LC-MS/MS analysis
Assay type: ADME, organism-based, Canis lupus familiaris
Settings: in vivo
Measure: clearance (mL/min/kg)
All answers are understood in mL/min/kg, so give the number only.

### Prompt Name the recorded clearance of the item CC(C)(O)c1cc2nc([C@H]3CC[C@H](CN4CC5(CC(CCNc6cccc7c6C(=O)N(C6CCC(=O)NC6=O)C7=O)C5)C4)CC3)sc2cc1NC(=O)c1cccc(C(F)(F)F)n1 (stereo partly specified) [ZOMIRADOMIDE] in your answer.
### Response 14

====

Assay: Passive permeability of the compound in wild type MDCK cells across apical to basolateral side at 1 uM measured for 120 mins by LC-MS/MS analysis
Type: ADME, cell-based, Canis lupus familiaris
Settings: dog, read-out: permeability
We label by threshold. Values of Papp A→B at 2 h, 1 µM strictly beneath 0.7 ×10⁻⁶ cm/s are criterion met. Values of 0.7 ×10⁻⁶ cm/s and up are criterion not met.

CN(C[C@H]1CC[C@H](n2cc3cc(NC(=O)c4cccc(C(F)(F)F)n4)c(C(C)(C)O)cc3n2)CC1)[C@H]1CC[C@]2(CC1)C[C@H](Nc1cccc3c1C(=O)N(C1CCC(=O)NC1=O)C3=O)C2 (stereo partly specified) = criterion not met
COc1cc2nc([C@H]3CC[C@H](CN4CC5(CC(CCNc6cccc7c6C(=O)N(C6CCC(=O)NC6=O)C7=O)C5)C4)CC3)oc2cc1NC(=O)c1cccc(C(F)(F)F)n1 (stereo partly specified) = criterion met
CN(CCCNc1cccc2c1C(=O)N(C1CCC(=O)NC1=O)C2=O)C[C@H]1CC[C@H](n2cc3cc(NC(=O)c4cccc(C(F)(F)F)n4)c(C(C)(C)O)cc3n2)CC1 (stereo partly specified) = criterion met
CC(C)(O)c1cc2nn(CCCCCNCCCNc3cccc4c3C(=O)N(C3CCC(=O)NC3=O)C4=O)cc2cc1NC(=O)c1cccc(C(F)(F)F)n1 (stereo unspecified) = criterion met
CC(C)(O)c1cc2nc([C@H]3CC[C@H](CN4CC5(CC(CCNc6cccc7c6C(=O)N(C6CCC(=O)NC6=O)C7=O)C5)C4)CC3)sc2cc1NC(=O)c1cccc(C(F)(F)F)n1 (stereo partly specified) [ZOMIRADOMIDE] = criterion not met

### Prompt Consider CN(CCCO[C@H]1C[C@H](Nc2cccc3c2C(=O)N(C2CCC(=O)NC2=O)C3=O)C1)C[C@H]1CC[C@H](n2cc3cc(NC(=O)c4cccc(C(F)(F)F)n4)c(C(C)(C)O)cc3n2)CC1 (stereo partly specified) . Does its Papp A→B at 2 h, 1 µM lie strictly below 0.7 ×10⁻⁶ cm/s?
### Response criterion not met

====

This listing pairs molecules with measured Papp A→B at 2 h, 1 µM.
Experiment: Passive permeability of the compound in wild type MDCK cells across apical to basolateral side at 1 uM measured for 120 mins by LC-MS/MS analysis
Format: ADME, cell-based, Canis lupus familiaris
Settings: dog, read-out: permeability
Write the answer as a number in ×10⁻⁶ cm/s, unit excluded.

Known results for molecules:
CN(CCCO[C@H]1C[C@H](Nc2cccc3c2C(=O)N(C2CCC(=O)NC2=O)C3=O)C1)C[C@H]1CC[C@H](n2cc3cc(NC(=O)c4cccc(C(F)(F)F)n4)ccc3n2)CC1 (stereo partly drawn) = 5.5
CN(CCCN(C)c1cccc2c1C(=O)N(C1CCC(=O)NC1=O)C2=O)C[C@H]1CC[C@H](n2cc3cc(NC(=O)c4cccc(C(F)(F)F)n4)c(C(C)(C)O)cc3n2)CC1 (stereo partly drawn) = 4.2

Now look at this entry.
### Prompt Hello, please tell me recorded Papp A→B at 2 h, 1 µM for this one: COc1cc2nc([C@H]3CC[C@H](CN4CC5(CC(CCNc6cccc7c6C(=O)N(C6CCC(=O)NC6=O)C7=O)C5)C4)CC3)sc2cc1NC(=O)c1cccc(C(F)(F)F)n1 (stereo partly drawn)
### Response 0.18

====

Target: Protein cereblon/Interleukin-1 receptor-associated kinase 4 (Homo sapiens, UniProt Q96SW2+Q9NWZ3)
Experiment: Binding affinity to CRBN/IRAK4 […] assessed as dissociation constant by DiscoverX Kd Elect assay
Response field label: string, one of yes (Kd strictly below 0.4 nM) or no.

Known results for compounds:
CN(CCCOCCCNc1cccc2c1C(=O)N(C1CCC(=O)NC1=O)C2=O)C[C@H]1CC[C@H](n2cc3cc(NC(=O)c4cccc(C(F)(F)F)n4)c(C(C)(C)O)cc3n2)CC1 (some centres not stated) = no
CC(C)(O)c1cc2c(cnn2CCCCCCCCCNc2cccc3c2C(=O)N(C2CCC(=O)NC2=O)C3=O)cc1NC(=O)c1cccc(C(F)(F)F)n1 (configuration not stated) = no
CN(CCCO[C@H]1C[C@@H](Nc2cccc3c2C(=O)N(C2CCC(=O)NC2=O)C3=O)C1)C[C@H]1CC[C@H](n2cc3cc(NC(=O)c4cccc(C(F)(F)F)n4)c(C(C)(C)O)cc3n2)CC1 (some centres not stated) = yes
CC(C)(O)c1cc2nn(CCCCCCCCCNc3cccc4c3C(=O)N(C3CCC(=O)NC3=O)C4=O)cc2cc1NC(=O)c1cccc(C(F)(F)F)n1 (configuration not stated) = no
CN(CCCNc1cccc2c1C(=O)N(C1CCC(=O)NC1=O)C2=O)C[C@H]1CC[C@H](n2cc3cc(NC(=O)c4cccc(C(F)(F)F)n4)c(C(C)(C)O)cc3n2)CC1 (some centres not stated) = yes
CC(C)(O)c1cc2nn(CCCCCNCCCNc3cccc4c3C(=O)N(C3CCC(=O)NC3=O)C4=O)cc2cc1NC(=O)c1cccc(C(F)(F)F)n1 (configuration not stated) = no
CN(CCCCc1cccc2c1C(=O)N(C1CCC(=O)NC1=O)C2=O)C[C@H]1CC[C@H](n2cc3cc(NC(=O)c4cccc(C(F)(F)F)n4)c(C(C)(C)O)cc3n2)CC1 (some centres not stated) = yes
CN(CCCOc1cccc2c1CN(C1CCC(=O)NC1=O)C2=O)C[C@H]1CC[C@H](n2cc3cc(NC(=O)c4cccc(C(F)(F)F)n4)c(C(C)(C)O)cc3n2)CC1 (some centres not stated) = yes
CC(C)(O)c1cc2nn([C@H]3CC[C@H](CO)CC3)cc2cc1NC(=O)c1cccc(C(F)(F)F)n1 = yes
CN(CCCN(C)c1cccc2c1C(=O)N(C1CCC(=O)NC1=O)C2=O)C[C@H]1CC[C@H](n2cc3cc(NC(=O)c4cccc(C(F)(F)F)n4)c(C(C)(C)O)cc3n2)CC1 (some centres not stated) = no

### Prompt Please check: Kd for CC(C)(O)c1cc2nn(-c3ccc(CO)cc3)cc2cc1NC(=O)c1cccc(C(F)(F)F)n1 , strictly under 0.4 nM or not?
### Response no

### Prompt Is the reported Kd for CN(CCCO[C@H]1C[C@H](Nc2cccc3c2C(=O)N(C2CCC(=O)NC2=O)C3=O)C1)C[C@H]1CC[C@H](n2cc3cc(NC(=O)c4cccc(C(F)(F)F)n4)c(C(C)(C)O)cc3n2)CC1 (some centres not stated) strictly below 0.4 nM?
### Response no

====

Assay: Clearance in Non human primate at 0.2 mg/kg, iv by LC-MS/MS analysis
Type: ADME, organism-based
Conditions: primates, in vivo
Measure: clearance (mL/min/kg)
Dear colleague, please return just the value in mL/min/kg, with no unit written.

### Prompt Give clearance for the following compound: CC(C)(O)c1cc2nc([C@H]3CC[C@H](CN4CC5(CC(CCNc6cccc7c6C(=O)N(C6CCC(=O)NC6=O)C7=O)C5)C4)CC3)sc2cc1NC(=O)c1cccc(C(F)(F)F)n1 (stereo partly specified) [ZOMIRADOMIDE]
### Response 4.5

====

Target: Protein cereblon/Interleukin-1 receptor-associated kinase 4 (Homo sapiens, UniProt Q9NWZ3+Q96SW2)
Sequence (Q9NWZ3 whole entry): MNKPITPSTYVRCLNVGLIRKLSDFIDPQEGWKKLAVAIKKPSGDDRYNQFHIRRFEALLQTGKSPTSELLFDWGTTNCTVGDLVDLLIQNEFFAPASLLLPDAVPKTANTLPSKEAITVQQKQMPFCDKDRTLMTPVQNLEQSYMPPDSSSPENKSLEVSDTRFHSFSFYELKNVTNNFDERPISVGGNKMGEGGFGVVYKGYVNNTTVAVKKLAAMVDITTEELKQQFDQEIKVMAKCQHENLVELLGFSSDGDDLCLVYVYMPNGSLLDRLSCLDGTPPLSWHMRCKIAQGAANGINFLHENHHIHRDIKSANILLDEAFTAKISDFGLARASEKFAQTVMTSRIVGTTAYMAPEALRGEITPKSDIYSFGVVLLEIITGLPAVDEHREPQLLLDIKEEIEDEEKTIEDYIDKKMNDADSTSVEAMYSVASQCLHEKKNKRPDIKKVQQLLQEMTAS
Sequence (Q96SW2 whole entry): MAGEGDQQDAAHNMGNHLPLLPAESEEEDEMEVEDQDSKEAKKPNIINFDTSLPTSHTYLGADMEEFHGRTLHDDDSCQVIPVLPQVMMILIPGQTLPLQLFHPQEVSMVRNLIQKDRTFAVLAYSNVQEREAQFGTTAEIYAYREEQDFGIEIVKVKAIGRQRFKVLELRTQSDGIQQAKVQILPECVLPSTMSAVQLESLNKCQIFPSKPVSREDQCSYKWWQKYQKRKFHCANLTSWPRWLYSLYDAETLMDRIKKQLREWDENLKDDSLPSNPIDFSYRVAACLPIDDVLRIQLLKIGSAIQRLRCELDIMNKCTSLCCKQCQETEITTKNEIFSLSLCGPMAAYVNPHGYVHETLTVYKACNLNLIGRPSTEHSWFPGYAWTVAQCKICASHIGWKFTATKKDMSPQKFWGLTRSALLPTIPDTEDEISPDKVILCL
Assay: PROTAC activity at CRBN/IRAK4 in human OCI-Ly10 cells assessed as induction of IRAK4 degradation measured after 24 hrs by MSD assay
Assay type: cell-based
Note to self: use label 1 only for DC50 readings below 40 nM; a reading exactly at 40 nM still gets label 0.

### Prompt State whether 40 nM exceeds DC50 recorded for CN(CCCO[C@H]1C[C@H](Nc2cccc3c2C(=O)N(C2CCC(=O)NC2=O)C3=O)C1)C[C@H]1CC[C@H](n2cc3cc(NC(=O)c4cccc(C(F)(F)F)n4)ccc3n2)CC1 (stereo partly specified) .
### Response label 1

### Prompt Quick check: DC50 of CC(C)(O)c1cc2nn(CCCCCCCCCNc3cccc4c3C(=O)N(C3CCC(=O)NC3=O)C4=O)cc2cc1NC(=O)c1cccc(C(F)(F)F)n1 (stereo unspecified) under 40 nM?
### Response label 0

### Prompt Hello, is DC50 of the following molecule strictly smaller than 40 nM? CC(C)(O)c1cc2nn([C@H]3CC[C@H](CN4CCC(O[C@H]5C[C@H](Nc6cccc7c6C(=O)N(C6CCC(=O)NC6=O)C7=O)C5)CC4)CC3)cc2cc1NC(=O)c1cccc(C(F)(F)F)n1 (stereo partly specified)
### Response label 1

### Prompt API: query returns whether the molecule falls strictly under 40 nM in DC50. Query: CN(C[C@H]1CC[C@H](n2cc3cc(NC(=O)c4cccc(C(F)(F)F)n4)c(C(C)(C)O)cc3n2)CC1)[C@H]1CC[C@]2(CC1)C[C@H](Nc1cccc3c1C(=O)N(C1CCC(=O)NC1=O)C3=O)C2 (stereo partly specified)
### Response label 1

### Prompt Say whether its DC50 is strictly beneath 40 nM. Entry: COc1cc2nc([C@H]3CC[C@H](CN4CC5(CC(CCNc6cccc7c6C(=O)N(C6CCC(=O)NC6=O)C7=O)C5)C4)CC3)oc2cc1NC(=O)c1cccc(C(F)(F)F)n1 (stereo partly specified)
### Response label 0
